Reference source for all entries: ChEMBL document CHEMBL1154908

Target: ATP-dependent translocase ABCB1 (Homo sapiens, UniProt P08183)
Sequence (P08183 whole entry): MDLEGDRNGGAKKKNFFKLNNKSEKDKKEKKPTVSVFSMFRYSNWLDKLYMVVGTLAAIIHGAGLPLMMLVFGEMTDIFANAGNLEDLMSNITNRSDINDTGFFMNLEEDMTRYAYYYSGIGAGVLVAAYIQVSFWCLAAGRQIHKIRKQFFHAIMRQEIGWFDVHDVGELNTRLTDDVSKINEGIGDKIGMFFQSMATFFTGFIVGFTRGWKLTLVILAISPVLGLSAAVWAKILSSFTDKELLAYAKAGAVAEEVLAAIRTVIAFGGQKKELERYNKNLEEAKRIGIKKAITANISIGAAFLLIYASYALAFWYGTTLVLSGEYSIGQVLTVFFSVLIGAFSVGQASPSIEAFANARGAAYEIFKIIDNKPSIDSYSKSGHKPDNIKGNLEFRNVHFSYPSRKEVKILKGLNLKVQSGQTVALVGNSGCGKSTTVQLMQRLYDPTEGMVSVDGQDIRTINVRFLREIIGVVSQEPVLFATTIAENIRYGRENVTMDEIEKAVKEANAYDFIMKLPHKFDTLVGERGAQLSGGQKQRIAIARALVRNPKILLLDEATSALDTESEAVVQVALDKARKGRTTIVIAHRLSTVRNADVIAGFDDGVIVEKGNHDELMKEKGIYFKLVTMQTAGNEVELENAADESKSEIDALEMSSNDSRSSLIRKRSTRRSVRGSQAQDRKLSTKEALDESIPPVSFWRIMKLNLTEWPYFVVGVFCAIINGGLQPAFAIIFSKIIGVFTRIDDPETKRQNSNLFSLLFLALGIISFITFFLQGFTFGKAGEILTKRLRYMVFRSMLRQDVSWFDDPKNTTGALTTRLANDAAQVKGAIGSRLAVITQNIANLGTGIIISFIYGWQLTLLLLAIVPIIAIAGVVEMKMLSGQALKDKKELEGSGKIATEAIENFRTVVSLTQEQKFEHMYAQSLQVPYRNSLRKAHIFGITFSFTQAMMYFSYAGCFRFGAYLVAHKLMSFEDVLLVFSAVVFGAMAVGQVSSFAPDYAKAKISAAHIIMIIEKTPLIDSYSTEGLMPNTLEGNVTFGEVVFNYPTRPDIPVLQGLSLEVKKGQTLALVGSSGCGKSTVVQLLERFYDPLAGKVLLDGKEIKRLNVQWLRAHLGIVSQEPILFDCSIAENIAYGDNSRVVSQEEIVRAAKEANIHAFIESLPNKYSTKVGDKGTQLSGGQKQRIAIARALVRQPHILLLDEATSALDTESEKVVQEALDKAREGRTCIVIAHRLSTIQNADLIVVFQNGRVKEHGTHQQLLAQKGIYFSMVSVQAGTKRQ
Experiment: Inhibition of P-glycoprotein-mediated multidrug resistance in human doxorubicin-resistant K562 cells assessed as drug level causing 50% increase in nuclear concentration of pirarubicin by spectrofluorimetry
Settings: read-out: INH
Recorded IC50 determines the group label, using lowest: < 200 nM; middle: ≥ 200 nM and < 400 nM; highest: ≥ 400 nM

Examples from the recorded data:
| Molecule | Category Label |
| --- | --- |
| COc1ccc(C(C(=O)OCCCN(C)CCCOC(=O)/C=C/c2cc(OC)c(OC)c(OC)c2)c2ccc(OC)cc2)cc1 | lowest |
| COc1ccc(C(C#N)(CCCNCc2c3ccccc3cc3ccccc23)C(C)C)cc1OC (configuration not stated) | lowest |

Exercise: For `COc1cc(/C=C/C(=O)OCCCN(C)CCCOC(=O)/C=C/c2c3ccccc3cc3ccccc23)cc(OC)c1OC` , which IC50 bin applies?
Solution: middle

Exercise: Hi, small favor: classify `COc1ccc(/C=C/C(=O)OCCCN(C)CCCOC(=O)c2c3ccccc3cc3ccccc23)cc1OC` by its IC50 when you get a moment.
Solution: lowest

Exercise: # bin label for `COc1cc(/C=C/C(=O)OCCCN(C)CCCOC(=O)/C=C/c2ccc(-c3ccccc3)cc2)cc(OC)c1OC`
Solution: middle

Exercise: read the entry `COc1ccc(/C=C/C(=O)OCCCCCN(C)CCCCCOC(=O)c2c3ccccc3cc3ccccc23)cc1OC` and state which class it falls under.
Solution: lowest

Exercise: Would you mind sorting COc1cc(/C=C/C(=O)OCCCN(C)CCCOC(=O)CN2C(=O)C3C4c5ccccc5C(c5ccccc54)C3C2=O)cc(OC)c1OC (configuration not stated) into the appropriate category?
Solution: middle

Exercise: Determine which band this molecule sits in: `COc1cc2c(cc1OC)CN(CCC(=O)OCCCN(C)CCCOC(=O)/C=C/c1cc(OC)c(OC)c(OC)c1)CC2`
Solution: highest

Exercise: Categorize the following entry: `COc1cc(/C=C/C(=O)OCCCN(C)CCCOC(=O)c2ccc(-c3ccccc3)cc2)cc(OC)c1OC`
Solution: middle

Exercise: Could you tell me which band `COc1ccc(/C=C/C(=O)OCCCCCN(C)CCCCCOC(=O)c2cc(OC)c(OC)c(OC)c2)cc1OC` belongs to?
Solution: highest

###

Target: UniProt:P08183
Experiment: Inhibition of P-glycoprotein-mediated multidrug resistance in human doxorubicin-resistant K562 cells assessed as maximal increase in nuclear concentration of pirarubicin by spectrofluorimetry relative to sensitive K562 cells
Assay type: cell-based
Measured Parameter: fold change (FC)
Numbers only.

Example entries and their recorded answers appear below.
| Smiles Representation | Recorded Result |
| --- | --- |
| COc1cc(/C=C/C(=O)OCCCNCCCOC(=O)/C=C/c2c3ccccc3cc3ccccc23)cc(OC)c1OC | 0.92 |
| COc1ccc(C(C(=O)OCCCN(C)CCCOC(=O)/C=C/c2cc(OC)c(OC)c(OC)c2)c2ccc(OC)cc2)cc1 | 0.79 |
| COc1cc(/C=C/C(=O)OCCCCCN(C)CCCCCOC(=O)/C=C/c2ccc(-c3ccccc3)cc2)cc(OC)c1OC | 0.4 |
| COc1cc(/C=C/C(=O)OCCCN(C)CCCOC(=O)/C=C/c2c3ccccc3cc3ccccc23)cc(OC)c1OC | 0.93 |
| COc1ccc(/C=C/C(=O)OCCCCCN(C)CCCCCOC(=O)c2cc(OC)c(OC)c(OC)c2)cc1OC | 0.7 |
| COc1ccc(/C=C/C(=O)OCCCN(C)CCCOC(=O)c2c3ccccc3c(Cl)c3ccccc23)cc1OC | 0.98 |

For each of the compounds below, note its fold change (FC).
1. COc1ccc(/C=C/C(=O)OCCCN(C)CCCOC(=O)/C=C/c2cc(OC)c(OC)c(OC)c2)cc1OC
2. COc1cc(/C=C/C(=O)OCCCN(C)CCCOC(=O)C=C(c2ccccc2)c2ccccc2)cc(OC)c1OC

Solution:
0.5
0.66

For every listed record, write down its fold change (FC).
1. COc1cc(/C=C/C(=O)OCCCN(C)CCCOC(=O)/C=C/c2ccc(-c3ccccc3)cc2)cc(OC)c1OC
2. COc1ccc(/C=C/C(=O)OCCCCCN(C)CCCCCOC(=O)c2c3ccccc3cc3ccccc23)cc1OC

Solution:
0.85
1

// batch mode: one fold change (FC) value per listed entry
1. COc1ccc(C(C(=O)OCCCCCN(C)CCCCCOC(=O)/C=C/c2cc(OC)c(OC)c(OC)c2)c2ccc(OC)cc2)cc1
2. COc1cc2c(cc1OC)CN(CCC(=O)OCCCN(C)CCCOC(=O)/C=C/c1cc(OC)c(OC)c(OC)c1)CC2

Solution:
[0.5, 0.63]

###

Target: ATP-dependent translocase ABCB1 (Homo sapiens)
Assay: Inhibition of P-glycoprotein-mediated multidrug resistance in human doxorubicin-resistant K562 cells assessed as drug level causing 50% increase in nuclear concentration of pirarubicin by spectrofluorimetry
Conditions: read-out: INH
Provide the reported IC50 of each item.
Numbers only, in µM.

Sample records with IC50:
| Molecule | Value Unit | IC50 |
| --- | --- | --- |
| COc1cc(/C=C/C(=O)OCCCN(C)CCCOC(=O)CCN2C(=O)C3C4c5ccccc5C(c5ccccc54)C3C2=O)cc(OC)c1OC (centres undefined) | µM | 0.39 |
| COc1cc(/C=C/C(=O)OCCCNCCCOC(=O)/C=C/c2c3ccccc3cc3ccccc23)cc(OC)c1OC | µM | 0.8 |
| COc1cc(/C=C/C(=O)OCCCN(C)CCCOC(=O)C=C(c2ccccc2)c2ccccc2)cc(OC)c1OC | µM | 0.16 |

Exercise: Fill in the recorded IC50 for this molecule, with ATP-dependent translocase ABCB1 (Homo sapiens) as test system: `COc1cc(/C=C/C(=O)OCCCN(C)CCCOC(=O)C(c2ccccc2)c2ccccc2)cc(OC)c1OC`
Solution: 0.26
